- Target desc: KRAS G12V-cRAF (Homo sapiens, UniProt P01116+P62937, G12V)
- Sequence (P01116 1-188 isoform P01116-2 G12V): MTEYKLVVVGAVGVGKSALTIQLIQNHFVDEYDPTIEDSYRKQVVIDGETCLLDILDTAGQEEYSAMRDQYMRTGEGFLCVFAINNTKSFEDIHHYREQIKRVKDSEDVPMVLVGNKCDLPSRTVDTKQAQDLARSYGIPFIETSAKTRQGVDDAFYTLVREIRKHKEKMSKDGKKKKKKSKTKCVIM
- Sequence (P62937 whole entry): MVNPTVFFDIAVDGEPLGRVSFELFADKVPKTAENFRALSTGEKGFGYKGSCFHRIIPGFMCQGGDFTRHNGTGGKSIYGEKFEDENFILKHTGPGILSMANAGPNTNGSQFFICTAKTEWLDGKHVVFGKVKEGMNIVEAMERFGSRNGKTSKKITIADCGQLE
- Assay procedure: Assay for binding of KRAS to cRAF (HTRF, with Cyclophilin A), KRAS G12V
- Condition description: read-out: KRAS G12V-cRAF binding assay, GPPNP-KRAS G12V, IC50 values
pIC50: −log10 of the molar value.
Property measured: pIC50

Compound	pIC50
CCn1c(-c2cc(C#CCN3CCS(=O)(=O)CC3)cnc2[C@H](C)NC)c2c3cc(ccc31)-c1csc(n1)C[C@H](NC(=O)[C@H]1[C@H](C)[C@@H]1C)C(=O)N1CCC[C@H](N1)C(=O)OCC(C)(C)C2 (atropisomer, axis not shown; (Ra)) [Compound Z66]	8.07
CCn1c(-c2cc(C#CCN3CCC(C#N)CC3)cnc2[C@H](C)NC)c2c3cc(ccc31)-c1csc(n1)C[C@H](NC(=O)[C@H]1[C@@H]3COC[C@@H]31)C(=O)N1CCC[C@H](N1)C(=O)OCC(C)(C)C2 (atropisomer, axis not shown; (Ra)) [Compound Z169-1]	7.76
CCn1c(-c2cc(C#CCN3CCC(C#N)(CN)CC3)cnc2[C@H](C)OC)c2c3cc(ccc31)-c1coc(n1)C[C@H](NC(=O)[C@H]1[C@@H]3COC[C@@H]31)C(=O)N1CCC[C@H](N1)C(=O)OCC(C)(C)C2 (atropisomer, axis not shown; (Ra)) [Compound Z166]	7.89
CCn1c(-c2cc(C#CCN3CCC(C#N)(CN)CC3)cnc2[C@H](C)OC)c2c3cc(ccc31)-c1coc(n1)C[C@H](NC(=O)[C@H]1[C@H](C)[C@@H]1C)C(=O)N1CCC[C@H](N1)C(=O)OCC(C)(C)C2 (atropisomer, axis not shown; (Ra)) [Compound Z182]	7.89
CCn1c(-c2cc(C#CCN3CCS(=O)(=O)CC3)cnc2[C@H](C)OC)c2c3cc(ccc31)-c1csc(n1)[C@@H](N)[C@H](NC(=O)[C@H]1[C@H](C)[C@@H]1C)C(=O)N1CCC[C@H](N1)C(=O)OCC(C)(C)C2 (atropisomer, axis not shown; (Ra)) [Compound Z65]	8.30

P = CCn1c(-c2cc(C#CCN3CCC(C#N)CC3)cnc2[C@H](C)OC)c2c3cc(ccc31)-c1csc(n1)C[C@H](NC(=O)[C@H]1[C@H](C)[C@@H]1C)C(=O)N1CCC[C@H](N1)C(=O)OCC(C)(C)C2 (atropisomer, axis not shown; (Ra)) [Compound Z282]
Q = CCn1c(-c2cc(C#CCN3CCN(C(C)=O)CC3)cnc2[C@H](C)OC)c2c3cc(ccc31)-c1csc(n1)C[C@H](NC(=O)[C@H]1[C@H](C)[C@@H]1C)C(=O)N1CCC[C@H](N1)C(=O)OCC(C)(C)C2 (atropisomer, axis not shown) [Control compound 2]
Exam item: Sort P and Q by pIC50 descending and give the first. # respond with the chosen item's label
Marked response: P
(P: 8.26, Q: 7.96)
